- experiment: Pharmacokinetic (PK) studies in rats after oral gavage (plasma free parent drug)
- experimental-context: read-out: Cmax (nmol/L), plasma testosterone, conscious carotid artery cannulated SD female rats, normalized to 2 mg/kg equivalent testosterone dose, mean ± SEM
measure-name: Cmax (nmol/L)

>>> assay_value("CCCCCCCCCCC(=O)O[C@H]1CC[C@H]2[C@@H]3CCC4=CC(=O)CC[C@]4(C)[C@H]3CC[C@]12C [TU, testosterone undecanoate, reference compound]")
5.6
